Target: T1, P6-AA-12HAA-V
T1 chain: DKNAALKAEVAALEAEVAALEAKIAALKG
Assay: two-hybrid library CCmax;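 further: natural log of median RNA to DNA barcode read ratio; higher means stronger binding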
Settings: mean of both orientations
Classification field: enter YES for interaction score values not below 2, NO for values below it.

Prompt line: # check: interaction score of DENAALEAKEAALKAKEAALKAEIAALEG [P5-AA-12HAA-E] is greater than or equal to 2
Response line: NO

Prompt line: # check: interaction score of DENAALEAKRAALKAKRAALKAEIAALEG [P5-AA-12HAA-R] is greater than or equal to 2
Response line: YES

Prompt line: # check: interaction score of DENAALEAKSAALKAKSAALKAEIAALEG [P5-AA-12HAA-S] is greater than or equal to 2
Response line: NO

Prompt line: # check: interaction score of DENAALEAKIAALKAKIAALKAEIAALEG [4H1385-AA] is greater than or equal to 2
Response line: YES

Prompt line: # check: interaction score of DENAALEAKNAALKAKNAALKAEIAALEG [P5-AA-1HAA-N] is greater than or equal to 2
Response line: NO

Prompt line: # check: interaction score of DENAALEAKYAALKAKYAALKAEIAALEG [P5-AA-12HAA-Y] is greater than or equal to 2
Response line: YES

Prompt line: # check: interaction score of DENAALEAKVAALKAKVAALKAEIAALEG [P5-AA-12HAA-V] is greater than or equal to 2
Response line: YES
